System: Male SD rats
Test name: Fluctuations in blood pressure and heart rate after administration
Assay type: in vivo
Condition label: isoflurane-anesthetized male SD rats, tail vein injection, dose as in Test Example 3, within 90 min
Where a name gives a salt, the structure may show the parent alone.
HR decrease Maximum decrease rate by entry:
Form entry: value (%) — number only.

Worked examples, 5 compounds total:
# Compound, Subject of test, HR decrease Maximum decrease rate [%]
data = [
    ("C[C@H](c1c[nH]cn1)c1cccc2c1CCC2", "Male SD rats", 30.2),
    ("Cc1cccc([C@H](C)c2cnc[nH]2)c1C [Dexmedetomidine hydrochloride, reference compound]", "Male SD rats", 33.8),
    ("CC(c1c[nH]cn1)c1cccc2c1COC2 (stereo not drawn)", "Male SD rats", 24.7),
    ("CC(c1c[nH]cn1)c1cccc2c1C=CC2 (stereo not drawn) [Compound 8, 4-[1-(1H-Inden-4-yl)ethyl]-1H-imidazole]", "Male SD rats", 24.9),
    ("C[C@H](c1c[nH]cn1)c1cc(F)cc2c1C=CC2", "Male SD rats", 31.2),
]

Given CC(c1c[nH]cn1)c1cccc2c1OCC2 (stereo not drawn) , state its recorded HR decrease Maximum decrease rate.
24.2

====

Subject of test: α2A adrenoceptor (Homo sapiens, UniProt P08913)
Construct: host or cells: 293
Test name: Agonist screening mode cAMP assay, 293-α2A cells
Format: cell-based
Condition label: in words, compared with dexmedetomidine hydrochloride
Property label: agonistic activity on the α2A receptor

Worked examples, 7 molecules total:
# Molecule, Result
rows = [
    ("CC(c1c[nH]cn1)c1cccc2c1C=CC2 (centres unmarked) [Compound 8, 4-[1-(1H-Inden-4-yl)ethyl]-1H-imidazole]", "superior"),
    ("CC(c1c[nH]cn1)c1cccc2c1CC2 (centres unmarked)", "comparable"),
    ("C[C@H](c1c[nH]cn1)c1cc(F)cc2c1C=CC2", "comparable"),
    ("CC(c1c[nH]cn1)c1cccc2c1OCC2 (centres unmarked)", "comparable"),
    ("CC(c1c[nH]cn1)c1cccc2c1CCCC2 (centres unmarked)", "comparable"),
    ("c1cc2c(c(Cc3c[nH]cn3)c1)SCCC2", "comparable"),
    ("C[C@H](c1c[nH]cn1)c1cccc2c1CCC2", "comparable"),
]

Given CC(c1c[nH]cn1)c1cccc2c1SCCC2 (centres unmarked) , state its recorded agonistic activity on the α2A receptor.
superior

====

Ki by entry:
Subject of test: α1A receptor (Homo sapiens)
Construct: expressed in transfected cells; host or cells: CHO-K1
Sequence (P35348 whole entry): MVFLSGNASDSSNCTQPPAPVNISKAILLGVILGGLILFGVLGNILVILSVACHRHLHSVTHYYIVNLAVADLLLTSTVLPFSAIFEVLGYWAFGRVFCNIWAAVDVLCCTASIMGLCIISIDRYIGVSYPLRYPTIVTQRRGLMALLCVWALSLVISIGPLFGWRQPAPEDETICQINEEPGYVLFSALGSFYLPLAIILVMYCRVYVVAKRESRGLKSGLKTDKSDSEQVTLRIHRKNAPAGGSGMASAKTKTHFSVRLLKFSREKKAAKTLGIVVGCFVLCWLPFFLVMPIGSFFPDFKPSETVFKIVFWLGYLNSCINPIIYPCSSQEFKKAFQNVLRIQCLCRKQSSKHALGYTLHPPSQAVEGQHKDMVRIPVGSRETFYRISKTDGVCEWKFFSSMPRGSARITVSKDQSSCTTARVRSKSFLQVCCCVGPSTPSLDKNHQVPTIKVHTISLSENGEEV
Test name: Competitive receptor binding assay, α1A (3H-Prazosin, CHO-K1-α1A membranes)
Condition label: Ki; CHO-K1-α1A membranes, 3H-Prazosin; read-out: Binding α1A
Structures can show the parent of a compound that is named as a salt.
Form entry: value (nM) — number only.

Worked examples, 3 compounds total:
# Compound, Uom, Ki
records = [
    ("c1cc2c(c(Cc3c[nH]cn3)c1)SCCC2 [Compound 1]", "nM", 67.9),
    ("Cc1cccc([C@H](C)c2cnc[nH]2)c1C [Dexmedetomidine hydrochloride, reference compound]", "nM", 593),
    ("CC(c1c[nH]cn1)c1cccc2c1SCCC2 (stereo not shown) [Compound 2]", "nM", 91.2),
]

With those in mind, consider the next compound.
Given C[C@H](c1c[nH]cn1)c1cc(F)cc2c1C(=O)CC2 [Compound 38-b] , state its recorded Ki.
3160

====

Subject of test: α2B adrenoceptor (Homo sapiens, UniProt P18089)
Sequence (P18089 whole entry): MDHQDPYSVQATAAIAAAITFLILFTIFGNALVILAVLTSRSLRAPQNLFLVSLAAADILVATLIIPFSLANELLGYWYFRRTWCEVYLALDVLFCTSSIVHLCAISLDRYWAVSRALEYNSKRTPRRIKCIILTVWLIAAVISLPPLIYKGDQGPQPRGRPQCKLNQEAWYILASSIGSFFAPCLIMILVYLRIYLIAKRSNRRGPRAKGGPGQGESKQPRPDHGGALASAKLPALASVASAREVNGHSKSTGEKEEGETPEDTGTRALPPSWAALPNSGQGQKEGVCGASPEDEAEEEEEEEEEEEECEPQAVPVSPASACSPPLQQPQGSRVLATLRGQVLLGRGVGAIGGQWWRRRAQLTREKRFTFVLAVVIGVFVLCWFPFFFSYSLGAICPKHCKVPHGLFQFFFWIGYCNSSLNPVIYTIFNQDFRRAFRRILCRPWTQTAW
Test name: Agonist screening mode IP-One assay, CHO-α2B/Gα15 cells
Structures can show the parent of a compound that is named as a salt.
pEC50 by entry:
Scale: negative log10 of molar concentration, which is what pEC50 denotes.

Worked examples, 3 molecules total:
# Molecule, Quantitative result
records = [
    ("C[C@H](c1c[nH]cn1)c1cc(F)cc2c1C=CC2 [Compound 11-b]", 8.59),
    ("CC(c1c[nH]cn1)c1cccc2c1C=CC2(C)C (stereo not drawn) [Compound 17]", 8.18),
    ("C[C@H](c1c[nH]cn1)c1cccc2c1CCC2 [Compound 31-b]", 8.97),
]

Given C[C@H](c1c[nH]cn1)c1cc(F)cc2c1C(=O)CC2 [Compound 38-b] , state its recorded pEC50.
8.42

Ok, now Cc1cccc([C@H](C)c2cnc[nH]2)c1C [Dexmedetomidine hydrochloride, reference compound]
9.02

====

Subject of test: α2C receptor (Homo sapiens)
Construct: expressed in transfected cells; host or cells: CHO-K1
Sequence (P18825 whole entry): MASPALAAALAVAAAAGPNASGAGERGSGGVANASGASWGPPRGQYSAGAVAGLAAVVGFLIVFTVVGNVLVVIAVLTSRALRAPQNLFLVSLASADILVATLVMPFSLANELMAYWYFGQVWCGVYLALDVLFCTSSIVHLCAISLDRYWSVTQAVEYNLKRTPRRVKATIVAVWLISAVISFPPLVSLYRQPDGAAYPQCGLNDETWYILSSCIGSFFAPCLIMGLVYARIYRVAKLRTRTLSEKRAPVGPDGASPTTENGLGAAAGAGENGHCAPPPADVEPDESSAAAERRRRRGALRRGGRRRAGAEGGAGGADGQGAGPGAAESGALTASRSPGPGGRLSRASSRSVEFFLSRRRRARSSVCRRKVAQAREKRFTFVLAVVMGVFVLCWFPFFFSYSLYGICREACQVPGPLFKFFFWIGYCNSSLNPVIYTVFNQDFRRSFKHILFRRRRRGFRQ
Test name: Competitive receptor binding assay, α2C (3H-RX821002, CHO-K1-α2C membranes)
Ki strictly less than 20 nM = T. Otherwise F.

Examples with answers:
# Compound, Class label
records = [
    ("CC(c1c[nH]cn1)c1cccc2c1CC2 (centres unmarked)", "F"),
    ("C[C@H](c1c[nH]cn1)c1cccc2c1CCC2", "T"),
    ("CC(c1c[nH]cn1)c1cccc2c1OCC2 (centres unmarked)", "T"),
    ("C[C@H](c1c[nH]cn1)c1cc(F)cc2c1C=CC2", "F"),
    ("CC1Cc2cccc(C(C)c3c[nH]cn3)c2O1 (centres unmarked)", "F"),
    ("CC(c1c[nH]cn1)c1cccc2c1CCCC2 (centres unmarked)", "F"),
]

I wonder whether CC(c1c[nH]cn1)c1cccc2c1C=CC2 (centres unmarked) [Compound 8, 4-[1-(1H-Inden-4-yl)ethyl]-1H-imidazole] has Ki below 20 nM. Can you tell?
T

Ok, now CC(c1c[nH]cn1)c1cccc2c1C=CC2(C)C (centres unmarked)
F

====

System: Male SD rats
Test name: Fluctuations in blood pressure and heart rate after administration
Assay type: in vivo
Condition label: isoflurane-anesthetized male SD rats, tail vein injection, dose as in Test Example 3, within 90 min
Structures can show the parent of a compound that is named as a salt.
MAP decrease Maximum decrease rate strictly less than 7% = label 1. Otherwise label 0.

# Compound, Class label
measured = [
    ("CC(c1c[nH]cn1)c1cccc2c1OCC2 (stereo not drawn)", "label 0"),
    ("CC(c1c[nH]cn1)c1cccc2c1COC2 (stereo not drawn)", "label 0"),
    ("C[C@H](c1c[nH]cn1)c1cccc2c1CCC2", "label 1"),
    ("C[C@H](c1c[nH]cn1)c1cc(F)cc2c1C=CC2", "label 1"),
]

Please turn your attention to the following entry.
I wonder whether Cc1cccc([C@H](C)c2cnc[nH]2)c1C [Dexmedetomidine hydrochloride, reference compound] has MAP decrease Maximum decrease rate below 7%. Can you tell?
label 0

====

Subject of test: α2A adrenoceptor (Homo sapiens, UniProt P08913)
Construct: host or cells: 293
Sequence (P08913 1-465): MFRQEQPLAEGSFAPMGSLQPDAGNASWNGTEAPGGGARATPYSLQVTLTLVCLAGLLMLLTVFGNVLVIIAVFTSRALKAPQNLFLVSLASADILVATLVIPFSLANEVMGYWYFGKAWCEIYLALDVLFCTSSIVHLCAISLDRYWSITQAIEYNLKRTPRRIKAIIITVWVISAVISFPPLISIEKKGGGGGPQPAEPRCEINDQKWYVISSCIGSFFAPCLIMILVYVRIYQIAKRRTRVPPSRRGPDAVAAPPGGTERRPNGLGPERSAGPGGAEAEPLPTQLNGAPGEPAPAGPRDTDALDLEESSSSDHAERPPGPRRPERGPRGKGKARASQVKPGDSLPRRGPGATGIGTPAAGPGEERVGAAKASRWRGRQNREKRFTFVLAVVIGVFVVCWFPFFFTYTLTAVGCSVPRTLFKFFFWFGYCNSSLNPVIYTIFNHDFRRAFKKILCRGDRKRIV
Test name: Agonist screening mode cAMP assay, 293-α2A cells
Type: cell-based
Condition label: ratio of α1A to α2A EC50
Property label: Function α1A/2A
// return just the number, without any unit appended

# Molecule, Subject of test, Quantitative result
rows = [
    ("C[C@H](c1c[nH]cn1)c1cccc2c1CCC2", "α2A adrenoceptor (Homo sapiens, UniProt P08913)", 1.8),
    ("C[C@H](c1c[nH]cn1)c1cc(F)cc2c1C=CC2", "α2A adrenoceptor (Homo sapiens, UniProt P08913)", 4.0),
    ("CC(c1c[nH]cn1)c1cccc2c1C=CC2 (centres unmarked) [Compound 8, 4-[1-(1H-Inden-4-yl)ethyl]-1H-imidazole]", "α2A adrenoceptor (Homo sapiens, UniProt P08913)", 23.9),
    ("CC(c1c[nH]cn1)c1cccc2c1SCCC2 (centres unmarked)", "α2A adrenoceptor (Homo sapiens, UniProt P08913)", 10.1),
    ("CC(c1c[nH]cn1)c1cccc2c1CCCC2 (centres unmarked)", "α2A adrenoceptor (Homo sapiens, UniProt P08913)", 7.0),
]

Given CC(c1c[nH]cn1)c1cccc2c1C=CC2(C)C (centres unmarked) , state its recorded Function α1A/2A.
3.2

Ok, now c1cc2c(c(Cc3c[nH]cn3)c1)SCCC2
2.5

Ok, now CC(c1c[nH]cn1)c1cccc2c1OCC2 (centres unmarked)
5.2

Ok, now C[C@H](c1c[nH]cn1)c1cc(F)cc2c1C(=O)CC2
0.7

Ok, now CC(c1c[nH]cn1)c1cccc2c1CC2 (centres unmarked)
18.3

Ok, now CC1Cc2cccc(C(C)c3c[nH]cn3)c2O1 (centres unmarked)
0.0
